From: PubChem BioAssay (Tox21)

# test description: qHTS assay to identify small molecule agonists of the RXR signaling pathway - cell viability counter screen (AID 1159529); further: nearly all actives have a fitted effect of over 50% in size
# details: RXR-alpha-bla HEK293T viability, CellTiter-Glo, 16 h; series mostly up to 76.8 µM
Inconclusive results are not listed. Calls of active or inactive are those of the source. The call rests on the fitted dose curve; in most records, active means well fitted cell-killing curve with a large enough effect in the repeat runs; inconclusive means weak or mixed curves, or effect the other way; inactive means no such curve, though single readings can be large or run the other way.
Permitted responses: active, inactive

compound: O=C(O)[C@H](O)[C@@H](O)C(=O)O
category label: inactive
//
compound: CN1[C@@H]2CC[C@H]1CC(O)C2 (some centres undefined)
category label: inactive
//
compound: CC(=O)C(Cl)C(=O)N(C)C (centres undefined)
category label: inactive
//
compound: COP(=S)(NC(C)C)Oc1ccc(C)cc1[N+](=O)[O-] (centres undefined)
category label: inactive
//
compound: [Cl][Hg][c]1ccccc1
category label: active

Please let me know the test result on file for "O=C(N[C@H]1N=C(c2ccccc2F)c2cccc3c2N(CC3)C1=O)c1cc2ccccc2[nH]1" . inactive

Please let me know the test result on file for "N#CCCl" . active

Please let me know the test result on file for "CCN(CC)CCc1c[nH]c2ccccc12" . inactive

Please let me know the test result on file for CN1C2CCC(C)(C)C1CC(OC(=O)C(O)(c1cccs1)c1cccs1)C2 (centres undefined) . inactive

Please let me know the test result on file for "N#Cc1sc2c(=O)c3ccccc3c(=O)c=2sc1C#N" . active

Please let me know the test result on file for "CC(C)N(C(=O)CCl)c1ccccc1" . active

Please let me know the test result on file for "c1csc(-c2ccc(-c3cccs3)s2)c1" . inactive

Please let me know the test result on file for CC(C)NCC(O)c1ccccc1Cl (centres undefined) . inactive

Please let me know the test result on file for "CCCCCCCCCCCCCCn1cc[n+](C)c1" . active

Please let me know the test result on file for "Nc1ccc(N=Nc2ccccc2)cc1" . inactive

Please let me know the test result on file for "CCCCCON=O" . inactive

* * *

# test description: qHTS assay to identify small molecule antagonists of the TGF-beta/Smad signaling pathway - cell viability counter screen (AID 1346824); further: nearly all actives have a fitted effect of over 50% in size
# details: SBE-bla HEK293T viability, CellTiter-Glo luminescence; series mostly up to 76.8 µM
Results filed as inconclusive are left out. Activity calls are given as the source filed them. Calls follow the shape of the dose curve; as a rule, active = well fitted cell-killing curve with a large enough effect in the repeat runs; inconclusive = weak or mixed curves; inactive = flat fitted curve, though single readings scatter.
Permitted responses: active, inactive

Consider the following illustrative entries.
compound: CC[C@]1(O)CC[C@H]2[C@@H]3CCC4=CCCC[C@@H]4[C@H]3CC[C@@]21C
category label: inactive

compound: CC(C)C(Br)C(=O)NC(N)=O (stereo not given)
category label: inactive

compound: S=C=Nc1ccccc1
category label: inactive

compound: Cc1ccc(C)c2ccccc12
category label: inactive

compound: Cc1ccc([N+](=O)[O-])[c]2c1[O][Hg]2
category label: active

Please let me know the test result on file for CC(Cc1ccc(O)cc1)NCC(O)c1cc(O)cc(O)c1 (stereo not given) . inactive

Please let me know the test result on file for "CN" . inactive

Please let me know the test result on file for NC1CCC(CC2CCC(N)CC2)CC1 (stereo not given) . inactive

Please let me know the test result on file for "CCC[CH2][Sn]([CH2]CCC)([CH2]CCC)[O][Sn]([CH2]CCC)([CH2]CCC)[CH2]CCC" . active

Please let me know the test result on file for CC1(C)C(C=C(Cl)Cl)C1C(=O)OC(C#N)c1ccc(F)c(Oc2ccccc2)c1 (stereo not given) . inactive

Please let me know the test result on file for "Nc1nc(N)c(N)c(N)n1" . inactive

Please let me know the test result on file for "C=Cc1cccc(CCl)c1" . inactive
